- test_details: Pharmacokinetics of intranasal esketamine 28, 56, 84 mg in healthy subjects (Example 9)
- measurement_setup: both, human, plasma, inhaled or intranasal, 28 mg
quantity: half-life (h)
One number for each entry, in h.

Requested read-out: half-life. Entry: CN[C@]1(c2ccccc2Cl)CCCCC1=O
7.25

---

- test_details: Pharmacokinetics of intranasal esketamine 28, 56, 84 mg in healthy subjects (Example 9)
- measurement_setup: both, human, plasma, inhaled or intranasal, 84 mg
quantity: half-life (h)
Numbers only, in h.

What half-life value was documented for this compound, CN[C@]1(c2ccccc2Cl)CCCCC1=O ?
7.11

---

- test_details: Pharmacokinetics of intranasal esketamine 28, 56, 84 mg in healthy subjects (Example 9)
- measurement_setup: both, human, plasma, other: intranasal, 84 mg
quantity: half-life

Suppose we examine the compound CN[C@]1(c2ccccc2Cl)CCCCC1=O [esketamine] ; what half-life value has been reported?
7.11 to 7.25 h
